Assay: soluble on expression in E. coli; label from the status in PepcDB or PDB records

{"columns": ["sequence-code", "soluble on expression in E. coli"],
 "data": [
  ["MGSDKIHHHHHHMAVRMLDIARRFNMLSERIRRESVELGIPAIDPEDGLILSSAAFYVGGGTGSYVDAGAGIGYSTIWIAYGAYHRCTDITCKIVAIEYDVELASILSRNLREVEAMFRGRIEFEVVSGDALDYFSRLEEKGREVFDMAFVDIEKGDYPEALERLENLLTAGGVAAFYNAFQPPPPPLFFDMVSKRPWKPVVLPTPAGLLLAVKTAG", "not soluble"],
  ["MGSDKIHHHHHHMTASLTALRAFDAAARNGSFRAAAADLNVTPTAISHHIRGLEDQLGVKLFRREGRDVALTDDGRRLADATNQAFGLLDNAVQSLRRSARKAVRVSAGPIFTARWLMPRISDFWEAHREIELEVVPAIHPGARDRENVDIVIRWDRIADMGRDAVKLLELSPVAIASEDFVAKRGPIDHPKDLLILPLLHQRNHWGWLDWFEAMGVSLADPLYGPIFEDANVLLRGAAEGQGAIIGWLPLIDQDLAEKRVVRVFDERIAPTHGYFVDVQHNSRARVEVRAVEDWLISQS", "not soluble"]
]}

---

Assay: soluble on expression in E. coli; label from the status in PepcDB or PDB records
readout-name: soluble on expression in E. coli

{"columns": ["sequence-code", "soluble on expression in E. coli"],
 "data": [
  ["MSVASLPECVKNFFPTEQLEFSSSITADEKPVLHEVFQKHSCFSQCGEMIDEVSKKHPELGKRLATVLEGNKKRLDGLSPAAVEYAKKLIHMVTTTLCSLTVGKPIDDADAKRLHQEFQSLSSEDQAALRKNNPDIKF", "not soluble"],
  ["MSSVYTMKRIWLQKDKKAYQAWRELMEKAELQTTEALDYTVGIYDDTALIASGSLSGKTIKCVAVCKKYQSENLLTQLVVHLLEKLREENQLHSFLYTKPKNEQIFQSLGFQKVVANQEVLFMEQGKPDFADYLGYLTQHKKAGPASSIVMNANPFTKGHQYLVEKAAQESPHVYVFVLSEDKSLFSKEARFAMVQKGVAHLPNVTVLSTEDYLVSSATFPTYFLKEKAPLEVAAIQATLDATLFKERIAPILEIQQRYVGEEPYSEVTAVYNQAMQQVFGQTITLTIVPRLASDGELISATKVRKAMAEGDKETLKKFLPATSYQYLVEHKKLMR", "not soluble"],
  ["MKWTGEDVALYERERDYIDTALLPLLPVAFGQGAKRLASGGELVGLIAAEVERQLKGRLFLMPSFVYFADEPRALLTERLADWTNRLRREGMKHLFYVTCDRAWQEGEEADRVWFVPVVPLESMGESYKHELVREQAAELLRFLIGRWAQE", "not soluble"],
  ["MERIAFVYMGGDEFKWLFFEVYDRVRRFMKDVNLGIIPIYAGKIKLPPGMLVRVNAGNGYIKMYPFEAVVEALYGKLVEMRDDVKDDTLTKIFGITTFPIGSRKQYFDIYKKYLGIQVSIGNYNVLALSIKPFYTENRELFVERVFKGVLHEIGHLYGLSHCKNDCVMNPPNDLKDWDRRAPSYCNSCLRELKRKVKPMPLLLHRAYECFHC", "not soluble"]
]}

Entry under test: MGSDKIHHHHHHMKTIKGPGIFLAQFIGTQAPFNTLAGIAQWAAGLGYKALQIPCNHPAIFDVERAAASQTYCDEVSGILAEHGLVISELSTHLEGQLVAVHPAYDAAFDAFAPAALHGDPQARQRWAVEKVRQAAVASGRLGLQAHATFSGALAWPFFYPWPPHNQPLLDEAFAELARRWRPLLDLFDEQGVDVCYEIHPGEDLHDGVTFERFLALVDNHPRCNMLYDPSHLHLQQMDYLAYIDIYHARIKAFHVKDAEFRRNGRNGVYGGYQPWQQRAGRFRSPGDGQIDFKGVFSKLTEYDFAGWAVLEWECCLKDSETGAREGSEFIRRHIIPVAGRAFDDFAAGGRE . Its soluble on expression in E. coli was not soluble

# soluble on expression in E. coli (sequence: MVDMAVTPVALLEASHLHYHVQQQALINDVSLHIASGEMVAIIGPNGAGKSTLLRLLTGYLSPSHGECHLLGQNLNSWQPKALARTRAVMRQYSELAFPFSVSEVIQMGRAPYGGSQDRQALQQVMAQTDCLALAQRDYRVLSGGEQQRVQLARVLAQLWQPQPTPRWLFLDEPTSALDLYHQQHTLRLLRQLTRQEPLAVCCVLHDLNLAALYADRIMLLAQGKLVACGTPEEVLNAETLTQWYQADLGVSRHPESALPQIYLRQ ) is not soluble

For record MGSDKIHHHHHHMVGIVLASHGNFAEGIYQSAEMIFGKQQNVQTVTLSPNEGPEDFLNKLKQAIDSFDDQKQVLLLIDLWGGTPFNQSSGLLSGHEDSWAVVTGMNLPMVIEAYGSRSSMDSAQEIATHIIETGKDGIRIKPESLEPKKATATVKSSGQPHGTIAPGTVLGDGKIKYVLARVDSRLLHGQVAMSWTKSTNPNRILVVSDSVAKDRLRKSMIVEAAPPGVNTNVIPIKKMIEVAKDPRFGNTKALVLFENPEDALKTIEGGVDIKELNIGSMSHAVGKVAVNKVLSLGKEDVEAFDGLKKLGVKFDVRKVPGDSSENMDNIVIKLEKIYQVLNLKKIRRV the listed soluble on expression in E. coli is not soluble

Note to self: soluble on expression in E. coli recorded for MKIKRLSLWHVPLTSHTAYYMAEGKTCDTVETAVLCIETDTGLTGWGEVCPIPHYLPAYARGVGPALSELAPVILSADPIGPEALMAKADAYLPDHRYAKSALDIALWDLTGQAAGLPLHALLGGQRQADLPLYHSITCIEPDEMARIAIEAQAQGMTQFQAKLGASGDWQTDVERLIKVREAVGSGPILYGDWNCGSTSLDATRTGRAVAHLDIMLEQPCATIEDCARVHSATGLPMKLDELVHDTASLLKAHQLGLMDVAALKLSKFGGLSATRRARDLCLHLGAKMCVEDTWGSDITTAAVLHLGAATDPARVLNVCDLSGYVSPRLAQDAPTRAQGRIAPPQAAGLGIAVDKTALGQPELILD was soluble

For this sequence ( MSLGDSEIYVSLDIGTASVKVIIAEMADDRLNIIGVGNVESSGIKKGIIIDIHKTVESIKKAIEQAERMVGVEISQVIVGVVSSQVHLEACRGIVAVGSENREITDEDVWNVMDAAQVVPLSPEREIINTIPDQFVVDGLTGITDPRGMIGVRLEMEGTLITGSKTILHNTLRCVERAGLEISDIALQPLAEASISLSEDDKEFGTALVNVGAGTTTVSVFEQGRLTYTGVIPVGGDNITKDLSLGLNTSTANADRVKLDHGYAFYDDASPDEVFAIDVIGSDQKQHFTQVEVADIIEARMEEIFQLVVEELTRVGKTHLPGGYVLTGGSMAIPGAIDLAGKTLAAHVRLAIPDYIGVREPSFTTAVGLIKYAYQMVELEGRDVSSEGHHHHHH ), measured soluble on expression in E. coli is soluble

Entry AHHHHHHGSGWWYTTNLRSRSNDMDKPEEILNEKDIIKRAYKFGFYVGLHGHTDWFGWVAEVKKKIYEEAKHLGVYEEVKKAYIKGKKAGRVEREKRIHLGLMKQTTSEIPEKIKIVSIERNRGSIASLNFPKIEDMPKTIKKPRFFRLPKILRGGEE — recorded soluble on expression in E. coli = not soluble

Reported soluble on expression in E. coli for NTLGMVMHADGGYLGSKPYCASGQYIKRMSDYCRGCAYKVTESTTDDACPFNALYWHFLMRHSDQLRRNQRMGMIYKNLDRMAEAKQQALWERGEHLLARLDAGEAL was not soluble

Value of soluble on expression in E. coli reported for the sequence EQHADPICNKPCKTHDDCSGAWFCQACWNSARTCGPYVG is soluble

The reported value for MRTRSGSAEFSGPLRSVAILAQEKLGDCVLLTPLVRNLRQAFPDLEIHLITFSRASANFFMNDPQVTAVHLVKKQPRRYFREVLSRKFDLLFNTKDHPSTWFLLQSALIRARFKVGHNNPFHEGLYDRLLDTEFHAHMAVKNCALLPLLGVTADTEACRPSLEHHHHHH in terms of soluble on expression in E. coli is soluble

---

Experiment: soluble on expression in E. coli; label from the status in PepcDB or PDB records
readout-name: soluble on expression in E. coli

{"columns": ["sequence-code", "readout-name", "reported-value"],
 "data": [
  ["GPGSMAKKEVVWLGTPTEADGSELSSPFTSRIGGSAVLFREAPTYSIFNCPKCRSSRWVSLLTQIYAPLDVYDRIVYVLICSSCSEGKGSFCFAVRSQNFNPSYVQSSPAPVVGGGEDEGITFVEDGDWGDDDPKYVDEGPNEVCITNLTCTTMADECKVGSPTQSTDVSSVLVPHGTKVPVEGFCYPCFVLNIFEEPPKPKLCYGTVPDQLLKAQQTYGEDAVETTVVEDEDEPLAEKLLRKYVDRIGRVPSQCVRWGPGQKPLRSSPAPIVIPRCPRCSNERRYELQLTSPIIYFLTKGKEEKDHSLHFGSVLVYTCGGNCNVQPYSLEHCVVEDEV", "soluble on expression in E. coli", "not soluble"],
  ["MAHHHHHHMYFLGEERHFRVLSLSFGVRGLQGSVTSEAAKIQTQMALQQTAYSACSRKVHCVSKHYLDDPFVHFFSRDMTIVNSPLMNRGTWLRTVAIERSVLSFARNWSADGPLQVISFGSGVDTLYFRLKKDHSEVNIVRYIELDFPDLVAEKQRVIEKTERLNQLVGPEYELVPCDLQKPDELREILKRVARNDVPTVLLAEMVFVYLEERTTTAILELTLNDVLKRDMCVLLIAYDAIRPNDRFGEVMVNSLASSGVPLRGIKELPTPEAHAERCKRVGLKSVMATSMRQLYLSVPQETQEWLKKLEMVDDWDEWCIMHDHYCFVLATNKAEALPTIF", "soluble on expression in E. coli", "not soluble"],
  ["MSNHDQLHRYLFANHAVRGELVSVNETYQQVLANHDYPPAVQKLLGEMLVATSLLTATLKFDGDITVQLQGGDGPLTLAVINGNNRQEMRGVARVKGEISDDSTLQEMVGNGYLVITITPAQGERYQGVVALEGETIAACLENYFMQSEQLPTRLFIRTGHVADKAAAGGMLLQVLPAQERNEDEFDHLAQLTATIKAEELFTLPANEVLYRLYHQEEVTLYEPQNVSFRCTCSRQRCADALVTLADDDVTEMLEQDGNIDMHCEYCGNHYLFDAVDIATLKNGNSASSEQIH", "soluble on expression in E. coli", "not soluble"]
]}
